Biological target: T1, human Claudin 3 (human, UniProt O15551 1-220)
T1 construct: whole, on cells; also called CLDN3
T1 sequence (looked up): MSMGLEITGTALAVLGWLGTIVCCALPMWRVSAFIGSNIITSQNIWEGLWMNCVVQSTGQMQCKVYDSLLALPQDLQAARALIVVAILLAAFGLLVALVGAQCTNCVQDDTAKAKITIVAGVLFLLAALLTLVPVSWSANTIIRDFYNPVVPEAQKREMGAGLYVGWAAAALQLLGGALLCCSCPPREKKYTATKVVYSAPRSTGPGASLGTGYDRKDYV
Experiment: flow cytometry, CHOK1/H_CLDN3 cells, Ab titrated from 100 nM
observed property: Top MFI

Example cases with answers are listed next.
>  <binder>
97-C10E1-2-P1.z8 (antibody, V domains shown) VH: QVQLQQSGAEVKKPGASVKVSCKASGYAFTGYTMNWVRQAPGQNLEWIGLSNPYNAGTIYNQKFKGRVTLTVDKSTSTVYMELLSLRSEDTAVYYCARNYYYGSSYAYYYAMDYWGQGTTVTVSS VL: DAQMTQSPSSLSASVGDRVTITCRSSTGAVTTSNYANWVQQKPGKAPKLLIGGTNNRAPGVPSRFSGSGSGTDATLTISSLQPEDFATYYCALWYSNHWVFGGGTKVEIK

>  <Top MFI>
137

$$$$
>  <binder>
97-C10E1-2-P1.z5 (antibody, V domains shown, also called candidate antibody) VH: QVQLVQSGAEVKKPGASVKVSCKASGYAFTGYTMNWVRQAPGQGLEWIGLSNPYNAGTIYNQKFKGRVTMTVDKSTSTVYMELSSLRSEDTAVYYCARNYYYGSSYAYYYAMDYWGQGTTVTVSS VL: DIVVTQSPSSLSTSVGDRVTITCRSSTGAVTTSNYANWVQEKPGKAFKGLIGGTNNRAPGVPARFSGSLSGDDAALTISSAQPEDFATYFCALWYSNHWVFGGGTKVEIK

>  <Top MFI>
254

$$$$
>  <binder>
97-C10E1-2-P1.z13 (antibody, V domains shown) VH: QVQLQQSGAEVKKPGASMKISCKASGYAFTGYTMNWVRQAPGQNLEWIGLSNPYNAGTIYNQKFKGRATLTVDKSTSTAYMELLSLRSEDTAVYYCARNYYYGSSYAYYYAMDYWGQGTTVTVSS VL: DAQMTQSPSSLSASVGDRVTITCRSSTGAVTTSNYANWVQQKPGKAPKLLIGGTNNRAPGVPSRFSGSGSGTDATLTISSLQPEDFATYYCALWYSNHWVFGGGTKVEIK

>  <Top MFI>
131

$$$$
>  <binder>
97-C10E1-2-P1.z3 (antibody, V domains shown) VH: QVQLVQSGAEVKKPGASVKVSCKASGYAFTGYTMNWVRQAPGQGLEWIGLSNPYNAGTIYNQKFKGRVTMTVDKSTSTVYMELSSLRSEDTAVYYCARNYYYGSSYAYYYAMDYWGQGTTVTVSS VL: DAQMTQSPSSLSASVGDRVTITCRSSTGAVTTSNYANWVQQKPGKAPKLLIGGTNNRAPGVPSRFSGSGSGTDATLTISSLQPEDFATYYCALWYSNHWVFGGGTKVEIK

>  <Top MFI>
133

$$$$

Pending binder:
Task: Field request: Top MFI | item: 97-C10E1-2-P1.z10 (antibody, V domains shown) VH: QVQLQQSGAEVKKPGASVKVSCKASGYAFTGYTMNWVRQAPGQNLEWIGLSNPYNAGTIYNQKFKGRVTLTVDKSTSTVYMELLSLRSEDTAVYYCARNYYYGSSYAYYYAMDYWGQGTTVTVSS VL: DIVVTQSPSSLSTSVGDRVTITCRSSTGAVTTSNYANWVQEKPGKAFKGLIGGTNNRAPGVPARFSGSLSGDDAALTISSAQPEDFATYFCALWYSNHWVFGGGTKVEIK
Output: 160
